Target: Akt1 (Homo sapiens, UniProt P31749)
Sequence (P31749 whole entry): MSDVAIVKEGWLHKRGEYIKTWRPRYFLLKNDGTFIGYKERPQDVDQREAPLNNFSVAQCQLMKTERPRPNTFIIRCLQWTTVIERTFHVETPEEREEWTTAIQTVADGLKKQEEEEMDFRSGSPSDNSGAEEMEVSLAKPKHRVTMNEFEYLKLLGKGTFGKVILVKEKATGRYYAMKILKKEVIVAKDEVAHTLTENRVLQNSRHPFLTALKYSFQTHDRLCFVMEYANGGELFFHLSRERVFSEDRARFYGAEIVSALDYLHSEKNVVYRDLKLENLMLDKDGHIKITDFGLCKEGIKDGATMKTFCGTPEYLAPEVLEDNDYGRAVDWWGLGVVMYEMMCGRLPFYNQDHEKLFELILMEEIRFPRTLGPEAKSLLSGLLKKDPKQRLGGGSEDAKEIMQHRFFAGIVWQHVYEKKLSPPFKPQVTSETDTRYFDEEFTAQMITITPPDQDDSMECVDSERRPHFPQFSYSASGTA
Test: STK HTRF KinEASE activity-based assay (IC50)
Conditions: IC50 Akt1, HTRF, ATP at KM, 1 h preincubation
Quick list: pIC50 per entry.
When answering, recall that pIC50 equals minus log10 of the concentration in mol/L, and write that number alone.

> print(dat)
                               given.smiles  reported.endpoint  observed.measurement
1  C=CC(=O)Nc1ccc2[nH]c(=O)n(C3CCN(Cc4ccc(-c5ncc(Cc6cccnc6)cc5-c5ccccc5)cc4)CC3)c2c1              pIC50                  5.68
2  C=CC(=O)Nc1ccc2[nH]c(=O)n(C3CCN(Cc4ccc(-c5ncc(Cc6ccc(N)cc6)cc5-c5ccccc5)cc4)CC3)c2c1              pIC50                  5.75
3  C=CC(=O)Nc1ccc2[nH]c(=O)n(C3CCN(Cc4ccc(-c5ncc(CN6CCCC6)cc5-c5ccccc5)cc4)CC3)c2c1              pIC50                  5.15

What does the data say about its pIC50? Entry: C=CC(=O)Nc1ccc2[nH]c(=O)n(C3CCN(Cc4ccc(-c5ncc(Cc6cccc(N)c6)cc5-c5ccccc5)cc4)CC3)c2c1 5.54
